Protein target, amino acids: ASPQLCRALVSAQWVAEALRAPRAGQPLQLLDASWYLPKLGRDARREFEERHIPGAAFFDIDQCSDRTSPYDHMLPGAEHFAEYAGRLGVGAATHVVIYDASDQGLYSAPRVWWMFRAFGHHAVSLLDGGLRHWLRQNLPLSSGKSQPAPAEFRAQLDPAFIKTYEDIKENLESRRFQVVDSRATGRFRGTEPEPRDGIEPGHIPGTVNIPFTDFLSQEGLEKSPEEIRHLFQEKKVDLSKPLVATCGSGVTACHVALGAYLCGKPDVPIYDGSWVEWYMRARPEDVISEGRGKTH
ENDPOINT_NAME: IC50 (µM)

COMPOUND: COc1cc2cc(Oc3ccc4ccc(=O)oc4c3)c(=O)oc2cc1O [compound 5, Daphnoretin]
QUANTITATIVE_RESULT: 9.59
